Test system: Puccinia recondita f. sp. tritici
Experiment: Puccinia recondita (brown rust), curative, wheat leaf segments
Type: in vivo
Settings: foliar, 192 h, sprayed 1 day after inoculation, 8 dpi, compared to untreated control
Assay endpoint: pest or weed control at 200 ppm

# Molecule, Assay target, Assay endpoint, Measured value
measured = [
    ("CO/C=C(\\Oc1cc(C2CCCC2)ccc1C)C(=O)OC", "Puccinia recondita f. sp. tritici", "pest or weed control at 200 ppm", "≥ 80%"),
    ("CO/C=C(\\Oc1cc(C2CCCCC2)ccc1C)C(=O)OC", "Puccinia recondita f. sp. tritici", "pest or weed control at 200 ppm", "≥ 80%"),
    ("CCON=C1CCC(c2ccc(C)c(O/C(=C\\OC)C(=O)OC)c2)CC1 (centres unmarked)", "Puccinia recondita f. sp. tritici", "pest or weed control at 200 ppm", "≥ 80%"),
    ("CO/C=C(\\Oc1cc(C2CCCCC2)c(F)cc1C)C(=O)OC", "Puccinia recondita f. sp. tritici", "pest or weed control at 200 ppm", "≥ 80%"),
    ("CO/C=C(\\Oc1cc(C2=CCCCC2)c(F)cc1C)C(=O)OC", "Puccinia recondita f. sp. tritici", "pest or weed control at 200 ppm", "≥ 80%"),
    ("CO/C=C(\\Oc1cc(C2CCC2)ccc1C)C(=O)OC", "Puccinia recondita f. sp. tritici", "pest or weed control at 200 ppm", "≥ 80%"),
    ("CO/C=C(\\Oc1cc(C2CC2C2CC2)ccc1C)C(=O)OC (centres unmarked)", "Puccinia recondita f. sp. tritici", "pest or weed control at 200 ppm", "≥ 80%"),
    ("CO/C=C(\\Oc1cc(C2CCC(=NOC)CC2)ccc1C)C(=O)OC (centres unmarked)", "Puccinia recondita f. sp. tritici", "pest or weed control at 200 ppm", "≥ 80%"),
    ("CO/C=C(\\Oc1cc(C2=CCC(C(F)F)CC2)ccc1C)C(=O)OC (centres unmarked)", "Puccinia recondita f. sp. tritici", "pest or weed control at 200 ppm", "≥ 80%"),
    ("CO/C=C(\\Oc1cc(C2=CCCCC2)ccc1C)C(=O)OC", "Puccinia recondita f. sp. tritici", "pest or weed control at 200 ppm", "≥ 80%"),
    ("CO/C=C(\\Oc1cc(C2CCC(OC)CC2)ccc1C)C(=O)OC (centres unmarked)", "Puccinia recondita f. sp. tritici", "pest or weed control at 200 ppm", "≥ 80%"),
]
